Values from PubChem BioAssay AID1851

- assay.system: Cytochrome P450 1A2 (Homo sapiens) (UniProt P05177)
- Sequence (P05177 whole entry, looked up): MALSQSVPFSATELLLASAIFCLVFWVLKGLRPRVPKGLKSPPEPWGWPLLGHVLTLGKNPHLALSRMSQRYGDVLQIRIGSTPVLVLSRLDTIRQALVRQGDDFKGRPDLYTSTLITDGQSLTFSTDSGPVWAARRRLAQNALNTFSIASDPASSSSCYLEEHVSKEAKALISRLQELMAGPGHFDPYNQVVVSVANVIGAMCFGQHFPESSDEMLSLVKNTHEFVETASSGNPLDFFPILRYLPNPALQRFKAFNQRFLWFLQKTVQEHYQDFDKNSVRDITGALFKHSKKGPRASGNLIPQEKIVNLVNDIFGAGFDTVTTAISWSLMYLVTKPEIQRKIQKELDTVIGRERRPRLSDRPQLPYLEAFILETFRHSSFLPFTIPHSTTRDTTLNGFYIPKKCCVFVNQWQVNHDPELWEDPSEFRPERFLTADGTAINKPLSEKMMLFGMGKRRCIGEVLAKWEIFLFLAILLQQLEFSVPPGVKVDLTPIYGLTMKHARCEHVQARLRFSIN
- procedure.text: Cytochrome panel assay with activity outcomes
- setup.conditions: recombinant CYP, pro-luciferin dealkylation, luminescence, p450-cyp1a2; series mostly up to 57.1 µM
Out of some 16,000 compounds screened, about 5,700 (36%) were called active. Roughly 24% stayed inconclusive and do not appear here. The call rests on the fitted dose curve; in most records, active means well fitted curve in the direction sought with a large enough effect; inconclusive means small, poorly fitted or top-dose-only effect, or effect the other way; inactive means no such curve, though single readings can be large or run the other way. The list shows a part of the results.
In this exercise, the only acceptable responses are 1 (active), -1 (inactive)

| compound | label |
| --- | --- |
| CC(=O)NCCNc1ncncc1-c1ccccc1C(F)(F)F | -1 |
| CCCCNC(=S)NNC(=O)c1sccc1C | 1 |
| Cc1ccc(OC(=O)c2cccc(C(=O)Oc3ccc(C)cc3)n2)cc1 | -1 |

Look up the recorded call for O=C(c1ccc2ncsc2c1)N1CCN(c2ccc(O)cc2)CC1 in this test.
-1

Could you please tell me the result logged for COc1ccccc1-c1ccc2ncnc(NCCNC(C)=O)c2c1 in this assay?
1

# outcome recorded in this test, key = CCCCNC(=S)NNC(=O)c1csc2c1CCC(C)C2 (configuration not stated)
1

Call for entry O=C(OCC(=O)c1cccs1)c1cccc(C(=O)OCC(=O)c2cccs2)n1 :
1

Which result was noted for this compound in the test: Nc1ccc(N2CCN(C(=O)c3ccco3)CC2)cc1
-1

Which result was noted for this compound in the test: c1cc2c(cc1C1CCCCC1)c1c3n2CCN[C@H]3CCC1
1

Which outcome was entered for the compound COc1ccc(C(=O)N2CCC[C@@]3(CCN(Cc4cc(C(F)(F)F)cc(C(F)(F)F)c4)C3)C2)cc1 in this test?
-1

Per the assay record, what outcome was assigned to CCCCNC(=O)NS(=O)(=O)c1ccc(C)cc1 ?
-1

Hey, what did the test say about CCOC(=O)c1cccc(C(=O)OCC)n1 ?
1

---

- assay.system: Cytochrome P450 1A2 (Homo sapiens)
- procedure.text: Cytochrome panel assay with activity outcomes
- setup.conditions: recombinant CYP, pro-luciferin dealkylation, luminescence, p450-cyp1a2; series mostly up to 57.1 µM
The whole screen tested about 16,000 compounds, of which about 5,700 (36%) were called active. Inconclusive results (about 24%) are left out. The call rests on the fitted dose curve; in most records, active means well fitted curve in the direction sought with a large enough effect; inconclusive means small, poorly fitted or top-dose-only effect, or effect the other way; inactive means no such curve, though single readings can be large or run the other way. This is one part of the list.
# output must be one of active, inactive

Worked examples follow.
| compound | label |
| --- | --- |
| Cc1nnc(NC(=O)CCC(=O)NCc2cccs2)s1 | inactive |
| CC(Cc1ccccc1)N/C=C1\CC(=O)NC1=O (stereo unspecified) | inactive |
| CC(=O)N1CC(=O)N(OCc2ccccc2)C1c1ccc(Cl)cc1Cl (stereo unspecified) | inactive |
| Cc1noc(C)c1-c1ccc2ncnc(NCc3cccs3)c2c1 | active |
| CC(=O)N1N=C(c2cccc([N+](=O)[O-])c2)OC1c1ccccc1Cl (stereo unspecified) | active |
| O=c1c(-c2cccc(F)c2)nc2cncnc2n1-c1ccccc1 | active |

What call does the record list for COc1ccc(/C(C)=N/NC(=O)c2ccc(CSc3cccc4cccnc34)cc2)cc1OC ?
active

---

- assay.system: Cytochrome P450 1A2 (Homo sapiens)
- procedure.text: Cytochrome panel assay with activity outcomes
- setup.conditions: recombinant CYP, pro-luciferin dealkylation, luminescence, p450-cyp1a2; series mostly up to 57.1 µM
About 5,700 (36%) of roughly 16,000 compounds were called active. About 24% were inconclusive and are not listed. Calls follow the shape of the dose curve; as a rule, active = well fitted curve in the direction sought with a large enough effect; inconclusive = small, poorly fitted or top-dose-only effect, or effect the other way; inactive = no such curve, though single readings can be large or run the other way. This is one part of the list.
// one of active, inactive, no free text

Take a look at these entries with their results.
| compound | label |
| --- | --- |
| Cc1ccccc1-c1cc(-c2ccccc2O)on1 | active |
| Cn1c(=O)c2[nH]c(-c3ccccc3)nc2n(C)c1=O | active |
| COc1ccc(-c2nc3c([nH]2)c(=O)n(C)c(=O)n3C)c(OC)c1 | active |
| c1cn(-c2ncnc3ccc(-c4ccoc4)cc23)cn1 | active |
| CC(CCc1ccccc1)NC(=O)C(=O)NCCO (configuration not stated) | inactive |

Outcome logged for CC(CCc1ccccc1)NC(=O)/C=C/c1ccccc1 (configuration not stated) in this assay:
active

Identify the outcome logged in this assay for the compound shown: Cc1ccccc1-c1ccc2ncnc(-n3ccnc3)c2c1
active

How was NC(=O)c1ccc(C2SCC(=O)N2Cc2ccccc2)cc1 (configuration not stated) classified in this test?
inactive

I'd appreciate the recorded outcome for Oc1ccccc1-c1cc(-c2ccccc2)no1 from this test.
active

Which result was noted for this compound in the test: COc1ccc(/C=C2\OC(=O)c3c(OC)cccc32)cc1OC
active

Hi, sorry to bother you, what did the test record for CCNc1nc(NCC)nc(N(C)N)n1 ?
active

I'd appreciate the recorded outcome for CCn1c(=O)c2[nH]c(-c3ccccc3)nc2n(CC)c1=O from this test.
active
